# TEST_NAME: Quantitative High-Throughput drug screen in 47 multiple myeloma cell lines against the NCATS MIPE library collection: ARP1_JJKsccF8 cell viability assay (AID 1918928; further: nearly all actives have a fitted effect of over 40% in size)
# MEASUREMENT_SETUP: ARP1 myeloma cells viability, CellTiter-Glo ATP, 48 h; series mostly up to 45.8 µM
# Excerpt: PI: Beverly A. Mock Ph.D. Laboratory of Cancer Biology and Genetics, Center for Cancer Research, National Cancer Institute, National Institute of Health, Bethesda, Maryland […] 5; Detector; 425V; Luminescence; Viewlux PerkinElmer. […] 1. […] Briefly, the corresponding myeloma cell lines were screened in 1,536-well plates with 500 cells, 5-uL per well for inhibition of cell viability (assessed by measuring ATP levels with CellTiterGlo). […]
Inconclusive results are not listed. Active and inactive are the calls of the source. The call rests on the fitted dose curve; in most records, active means well fitted cell-killing curve with a large enough effect; inconclusive means small, poorly fitted or top-dose-only effect, or effect the other way; inactive means no such curve, though single readings can be large or run the other way.
Pick one and only one: t (active), f (inactive)

Worked examples follow.
STRUCTURE	LABEL
COc1cc(CNC(=O)CCCCC=CC(C)C)ccc1O	f
CCC[C@H](N[C@@H](C)C(=O)N1[C@@H]2CCCC[C@H]2C[C@H]1C(=O)O)C(=O)OCC	f

Q: Recorded test outcome, item "Cc1ccc(C(=O)N(CCCN)[C@@H](c2oc3cc(Cl)ccc3c(=O)c2Cc2ccccc2)C(C)C)cc1"
Result: f

Q: Recorded test outcome, item "CCCCC(F)(F)[C@@]1(O)CC[C@H]2[C@H](CC(=O)[C@@H]2CCCCCCC(=O)O)O1"
Result: f

Q: Recorded test outcome, item "CNC(=O)c1cc(Oc2ccc(NC(=O)Nc3ccc(Cl)c(C(F)(F)F)c3)c(F)c2)ccn1"
Result: t
